Tested on: 817829-284-R-J1-PDC complex spheroids, viability
Assay: Anticancer human tumor 817829-284-R-J1-PDC patient-derived colon adenocarcinoma cell line growth inhibition [CLK]; active = viability on the fitted dose curve at most 10% of control; inactive = the rest
Details: second compound 0.316 µM; first compound 10 µM
Your reply should match one of these outcome classes. active, inactive

**Q:** What is the recorded call for this compound in the test? O=C(c1cc(Cc2n[nH]c(=O)c3ccccc23)ccc1F)N1CCN(C(=O)C2CC2)CC1 + CNC(=O)c1ccc(Nc2nc(OC3CCCC3)c3c(-c4ccc5nc(C)oc5c4)c[nH]c3n2)c(OC)c1
**A:** inactive

**Q:** Called result for C=C(F)C(=O)N1CCN(c2nc(OCC3CCCN3C)nc3c2CCN(c2cccc4cccc(Cl)c24)C3)CC1CC#N (stereo not given) + CN1CCN(c2cc(C(=O)Nc3cc4cc(-c5cnn(C)c5)ccc4cn3)ccn2)CC1
**A:** active

**Q:** Please let me know the test result on file for C#Cc1c(F)ccc2cc(O)cc(-c3ncc4c(N5CC6CCC(C5)N6)nc(OCC56CCCN5CC(F)C6)nc4c3F)c12 (stereo not given) + CNC(=O)c1ccc(Nc2nc(OC3CCCC3)c3c(-c4ccc5nc(C)oc5c4)c[nH]c3n2)c(OC)c1 .
**A:** inactive

**Q:** Hi team, can someone confirm the assay call for CC(CO)NC(=O)c1cc(-c2ccc(Cl)cc2)nn(-c2cnn(C)c2)c1=O (stereo not given) + CNC(=O)c1ccc(Nc2nc(OC3CCCC3)c3c(-c4ccc5nc(C)oc5c4)c[nH]c3n2)c(OC)c1 ?
**A:** inactive

Next:
**Q:** Any idea what this test logged for CC(Nc1ccc2c(c1)OCCn1cc(N3C(=O)OCC3C(F)F)nc1-2)C(N)=O (stereo not given) + CN1CCN(c2cc(C(=O)Nc3cc4cc(-c5cnn(C)c5)ccc4cn3)ccn2)CC1 ?
**A:** active

###

Tested on: 817829-284-R-J1-PDC complex spheroids, viability
Experiment: Anticancer human tumor 817829-284-R-J1-PDC cell line growth inhibition [CLK];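 also: spheroids exposed to the agents for seven days before readout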
Conditions: second compound 0.316 µM; first compound 0.0949 µM; stronger effect = lower value
# key: entry, value: viability, T/C

Noted viability, T/C for CC(C)CC(NC(=O)C(Cc1ccccc1)NC(=O)c1cnccn1)B(O)O (centres undefined) + CNC(=O)c1ccc(Nc2nc(OC3CCCC3)c3c(-c4ccc5nc(C)oc5c4)c[nH]c3n2)c(OC)c1 , tested on 817829-284-R-J1-PDC complex spheroids, viability: 0.08%

Assay 817829-284-R-J1-PDC complex spheroids, viability, sample NC(=O)C(=Cn1cnc(-c2cc(C(F)(F)F)cc(C(F)(F)F)c2)n1)c1cncnc1 + CN1CCN(c2cc(C(=O)Nc3cc4cc(-c5cnn(C)c5)ccc4cn3)ccn2)CC1 , viability, T/C read: 0.07%

Test item CC(C)CC(NC(=O)C(Cc1ccccc1)NC(=O)c1cnccn1)B(O)O (centres undefined) + CN1CCN(c2cc(C(=O)Nc3cc4cc(-c5cnn(C)c5)ccc4cn3)ccn2)CC1 ; 817829-284-R-J1-PDC complex spheroids, viability; reported viability, T/C was 0.05%

So the reported viability, T/C for C=CC(=O)Nc1cc(Nc2nccc(-c3cn(C)c4ccccc34)n2)c(OC)cc1N(C)CCN(C)C + CN1CCN(c2cc(C(=O)Nc3cc4cc(-c5cnn(C)c5)ccc4cn3)ccn2)CC1 , on 817829-284-R-J1-PDC complex spheroids, viability, turned out to be 1.13%
